target-or-test-system: hTLR7 (human Toll-like receptor 7) (Homo sapiens, UniProt Q9NYK1)
Construct: host or cells: HEK-Blue hTLR7 (HEK293-derived reporter cells)
protocol-details: HEK-Blue hTLR7 reporter assay (QUANTI-Blue, OD650)
Format: cell-based
assay-context: HEK-Blue hTLR7 cells, 24 h; class symbols; read-out: Reporter assay TLR7 EC50
attribute-measured: EC50

[[record]]
compound = "CCCN(OCc1ccc(N)cc1)C(=O)C1=Cc2ncc(-c3cncc(CO)c3)cc2N=C(N)C1 [Compound 61]"
target_or_test_system = "hTLR7 (human Toll-like receptor 7) (Homo sapiens, UniProt Q9NYK1)"
attribute_measured = "EC50"
assay_result = "0.1 to 1 µM"

[[record]]
compound = "CCCN(OCc1ccc(N)cc1)C(=O)C1=Cc2ccc(C(=O)N3CC[C@@H](O)C3)cc2N=C(N)C1 [Compound 46A]"
target_or_test_system = "hTLR7 (human Toll-like receptor 7) (Homo sapiens, UniProt Q9NYK1)"
attribute_measured = "EC50"
assay_result = "> 1 µM"

[[record]]
compound = "CCCN(OCc1ccc(N)cc1)C(=O)C1=Cc2ccc(C(=O)N3CC(Oc4ccccc4)C3)cc2N=C(N)C1 [Compound 94]"
target_or_test_system = "hTLR7 (human Toll-like receptor 7) (Homo sapiens, UniProt Q9NYK1)"
attribute_measured = "EC50"
assay_result = "0.1 to 1 µM"

[[record]]
compound = "CCCN(OCc1ccc(N)cc1)C(=O)C1=Cc2ccc(-c3cccc(S(=O)(=O)NCCO)c3)cc2N=C(N)C1 [Compound 64]"
target_or_test_system = "hTLR7 (human Toll-like receptor 7) (Homo sapiens, UniProt Q9NYK1)"
attribute_measured = "EC50"
assay_result = "0.1 to 1 µM"

[[record]]
compound = "CCCN(OCc1ccc(N)cc1)C(=O)C1=Cc2ccc(-c3ccc(C(=O)N4CC[C@@H](O)C4)cc3)cc2N=C(N)C1 [Compound 42]"
target_or_test_system = "hTLR7 (human Toll-like receptor 7) (Homo sapiens, UniProt Q9NYK1)"
attribute_measured = "EC50"
assay_result = "> 1 µM"

[[record]]
compound = "CCCN(OCc1ccc(N)cc1)C(=O)C1=Cc2ccc(C(=O)Nc3cccc(CN)c3)cc2N=C(N)C1 [Compound 86]"
target_or_test_system = "hTLR7 (human Toll-like receptor 7) (Homo sapiens, UniProt Q9NYK1)"
attribute_measured = "EC50"
assay_result = "> 1 µM"

[[record]]
compound = "CCCN(OCc1ccc(N)cc1)C(=O)C1=Cc2ccc(-c3cncc(C(F)(F)F)c3)cc2N=C(N)C1 [Compound 53]"
target_or_test_system = "hTLR7 (human Toll-like receptor 7) (Homo sapiens, UniProt Q9NYK1)"
attribute_measured = "EC50"
assay_result = "0.1 to 1 µM"


###

Attribute: EC50
target-or-test-system: hTLR8 (human Toll-like receptor 8) (Homo sapiens)
Construct: host or cells: HEK-Blue hTLR8 (HEK293-derived reporter cells)
Sequence (Q9NR97 27-1041): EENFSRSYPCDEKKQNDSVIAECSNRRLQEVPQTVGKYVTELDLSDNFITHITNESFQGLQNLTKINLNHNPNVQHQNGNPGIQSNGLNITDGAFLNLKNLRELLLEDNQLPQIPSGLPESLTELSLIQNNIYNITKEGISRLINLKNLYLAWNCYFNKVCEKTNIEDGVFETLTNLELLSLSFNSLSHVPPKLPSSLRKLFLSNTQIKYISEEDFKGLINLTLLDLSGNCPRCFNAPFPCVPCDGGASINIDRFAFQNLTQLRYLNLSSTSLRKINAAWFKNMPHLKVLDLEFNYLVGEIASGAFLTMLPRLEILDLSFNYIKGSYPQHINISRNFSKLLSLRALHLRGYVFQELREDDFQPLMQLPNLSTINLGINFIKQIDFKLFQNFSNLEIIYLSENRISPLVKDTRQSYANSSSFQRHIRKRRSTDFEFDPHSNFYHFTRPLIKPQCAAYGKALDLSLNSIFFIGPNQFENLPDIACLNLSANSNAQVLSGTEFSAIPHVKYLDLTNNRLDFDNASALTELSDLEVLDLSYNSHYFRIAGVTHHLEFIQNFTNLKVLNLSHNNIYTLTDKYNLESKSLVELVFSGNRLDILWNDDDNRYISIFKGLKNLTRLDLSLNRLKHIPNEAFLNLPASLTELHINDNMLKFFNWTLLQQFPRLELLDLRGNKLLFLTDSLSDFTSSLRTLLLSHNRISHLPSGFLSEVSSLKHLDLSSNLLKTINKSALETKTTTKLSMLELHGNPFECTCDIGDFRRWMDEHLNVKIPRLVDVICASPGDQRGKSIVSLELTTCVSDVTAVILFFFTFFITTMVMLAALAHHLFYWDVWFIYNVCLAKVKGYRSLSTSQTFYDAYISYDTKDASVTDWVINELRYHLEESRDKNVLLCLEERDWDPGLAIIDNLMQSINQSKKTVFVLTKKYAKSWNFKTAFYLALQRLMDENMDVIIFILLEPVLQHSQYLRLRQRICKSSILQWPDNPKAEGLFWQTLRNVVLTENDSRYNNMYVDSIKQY
protocol-details: HEK-Blue hTLR8 reporter assay (QUANTI-Blue, OD650)
Assay type: cell-based
assay-context: HEK-Blue hTLR8 cells, 24 h; class symbols; read-out: Reporter assay TLR8 EC50
attribute-measured: EC50

[[record]]
molecule = "CCCN(OCc1ccc(N)cc1)C(=O)C1=Cc2ccc(C(=O)N3CC[C@H](O)C3)cc2N=C(N)C1 [Compound 46B]"
assay_result = "10 to 100 nM"

[[record]]
molecule = "CCCN(OCc1ccc(N)cc1)C(=O)C1=Cc2ccc(C(=O)N3CC4(COC4)C3)cc2N=C(N)C1 [Compound 95]"
assay_result = "≤ 10 nM"

[[record]]
molecule = "CCCN(OCc1ccc(N)cc1)C(=O)C1=Cc2ccc(C(=O)NC3CCOCC3)cc2N=C(N)C1 [Compound 84]"
assay_result = "10 to 100 nM"

[[record]]
molecule = "CCCN(OCc1ccc(N)cc1OC)C(=O)C1=Cc2ncc(-c3cncc(CO)c3)cc2N=C(N)C1 [Compound 60]"
assay_result = "≤ 10 nM"

[[record]]
molecule = "CCCN(OCc1ccc(N)cc1)C(=O)C1=Cc2ccc(-c3cncc(C(=O)O)c3)cc2N=C(N)C1 [Compound 32]"
assay_result = "10 to 100 nM"

[[record]]
molecule = "NC1=Nc2cc(-c3cncc(CO)c3)ccc2C=C(C(=O)N(CCC(F)(F)F)OCc2ccc(N)cc2)C1 [Compound 58]"
assay_result = "≤ 10 nM"

[[record]]
molecule = "CCCN(OCc1ccc(N)cc1)C(=O)C1=Cc2ccc(C(=O)Nc3ncco3)cc2N=C(N)C1 [Compound 87]"
assay_result = "≤ 10 nM"


###

target-or-test-system: hTLR8 (human Toll-like receptor 8) (Homo sapiens, UniProt Q9NR97)
Construct: host or cells: HEK-Blue hTLR8 (HEK293-derived reporter cells)
protocol-details: HEK-Blue hTLR8 reporter assay (QUANTI-Blue, OD650)
Format: cell-based
assay-context: HEK-Blue hTLR8 cells, 24 h; class symbols; read-out: Reporter assay TLR8 EC50
pEC50: −log10 of the molar value.
attribute-measured: pEC50

[[record]]
compound = "CCCN(OCc1ccc(N)cc1)C(=O)C1=Cc2ccc(C(=O)Nc3cncc(OC)c3)cc2N=C(N)C1 [Compound 85]"
assay_result = "≥ 8.00"

[[record]]
compound = "CCCN(OCc1ccc(N)cc1)C(=O)C1=Cc2ccc(-c3cncc(S(=O)(=O)N4CCC(O)CC4)c3)cc2N=C(N)C1 [Compound 71]"
assay_result = "≥ 8.00"

[[record]]
compound = "CCCN(OCc1ccc(N)cc1)C(=O)C1=Cc2ccc(C(=O)Nc3ccn(C)n3)cc2N=C(N)C1 [Compound 88]"
assay_result = "≥ 8.00"

[[record]]
compound = "CCCN(OCc1ccc(N)cc1)C(=O)C1=Cc2ccc(C(=O)Nc3ccc4cn[nH]c4c3)cc2N=C(N)C1 [Compound 89]"
assay_result = "7.00 to 8.00"

[[record]]
compound = "CCCN(OCc1ccc(N)cc1)C(=O)C1=Cc2ccc(C(=O)NCCO)cc2N=C(N)C1 [Compound 48]"
assay_result = "7.00 to 8.00"

[[record]]
compound = "CCCN(OCc1ccc(N)cc1Cl)C(=O)C1=Cc2ncc(-c3cncc(CO)c3)cc2N=C(N)C1 [Compound 59]"
assay_result = "≥ 8.00"

[[record]]
compound = "CCCN(OCc1ccc(N)cc1)C(=O)C1=Cc2ccc(-c3cncc(CO)c3)nc2N=C(N)C1 [Compound 62]"
assay_result = "≥ 8.00"


###

target-or-test-system: hTLR7 (human Toll-like receptor 7) (Homo sapiens)
Construct: host or cells: HEK-Blue hTLR7 (HEK293-derived reporter cells)
Sequence (Q9NYK1 27-1049): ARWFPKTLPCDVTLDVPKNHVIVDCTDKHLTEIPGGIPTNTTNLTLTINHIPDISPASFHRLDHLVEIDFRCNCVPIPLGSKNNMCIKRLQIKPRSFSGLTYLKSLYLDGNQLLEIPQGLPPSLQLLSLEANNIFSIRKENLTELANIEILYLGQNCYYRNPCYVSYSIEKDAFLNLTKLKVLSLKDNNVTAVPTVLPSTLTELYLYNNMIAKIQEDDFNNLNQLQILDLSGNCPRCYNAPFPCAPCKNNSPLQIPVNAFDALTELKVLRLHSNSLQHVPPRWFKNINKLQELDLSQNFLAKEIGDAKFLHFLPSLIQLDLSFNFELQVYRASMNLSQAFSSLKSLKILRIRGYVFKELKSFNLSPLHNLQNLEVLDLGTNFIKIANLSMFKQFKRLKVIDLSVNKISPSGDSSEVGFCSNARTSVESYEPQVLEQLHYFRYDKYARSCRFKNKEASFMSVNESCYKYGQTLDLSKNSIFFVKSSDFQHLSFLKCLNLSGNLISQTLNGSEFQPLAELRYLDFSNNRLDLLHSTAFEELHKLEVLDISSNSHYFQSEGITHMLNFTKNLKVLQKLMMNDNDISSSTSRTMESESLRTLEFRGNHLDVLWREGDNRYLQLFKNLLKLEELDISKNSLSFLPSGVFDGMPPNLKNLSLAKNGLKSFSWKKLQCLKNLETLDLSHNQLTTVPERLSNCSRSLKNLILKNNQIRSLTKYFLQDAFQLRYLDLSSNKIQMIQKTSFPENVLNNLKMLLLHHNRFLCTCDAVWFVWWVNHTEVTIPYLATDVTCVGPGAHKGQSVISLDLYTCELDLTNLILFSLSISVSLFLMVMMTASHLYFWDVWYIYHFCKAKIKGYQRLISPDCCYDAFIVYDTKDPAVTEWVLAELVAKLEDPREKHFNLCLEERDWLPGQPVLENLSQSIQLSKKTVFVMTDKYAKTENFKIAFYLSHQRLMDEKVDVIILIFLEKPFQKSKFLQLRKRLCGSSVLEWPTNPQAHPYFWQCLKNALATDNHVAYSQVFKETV
protocol-details: HEK-Blue hTLR7 reporter assay (QUANTI-Blue, OD650)
Type: cell-based
assay-context: HEK-Blue hTLR7 cells, 24 h; read-out: Reporter assay TLR7 EC50
Protocol: In this example, the agonistic activity of the compounds of the present application on hTLR7 (human Toll-like receptor 7) and hTLR8 (human Toll-like receptor 8) was assessed; the induction activity of the compounds on human PBMCs for TNF-α and IFN-α production was assessed in human PBMCs (human peripheral blood mononuclear cells). […] Compound activity data analysis: The OD650 values were analyzed by GraphPad Prism software and fitted to give dose-response curves of the compounds. […]
attribute-measured: EC50 (nM)

[[record]]
compound = "CCCN(OCc1ccc(N)cc1)C(=O)C1=Cc2ccc(-c3cncc(N)c3)cc2N=C(N)C1 [Compound 52]"
attribute_measured = "EC50"
assay_result = 355

[[record]]
compound = "CCCN(OCc1ccc(N)cc1)C(=O)C1=Cc2ccc(-c3cncc(S(C)(=O)=O)c3)cc2N=C(N)C1 [Compound 56]"
attribute_measured = "EC50"
assay_result = 664

[[record]]
compound = "CCCN(OCc1ccc(N)cc1)C(=O)C1=Cc2ccc(-c3ccc(N4CCOCC4)nc3)cc2N=C(N)C1 [Compound 55]"
attribute_measured = "EC50"
assay_result = 685

[[record]]
compound = "NC1=Nc2cc(-c3cncc(CO)c3)ccc2C=C(C(=O)N(CC2CC2)OCc2ccc(N)cc2)C1 [Compound 45]"
attribute_measured = "EC50"
assay_result = 1160

[[record]]
compound = "CCCN(OCc1ccc(N)cc1)C(=O)C1=Cc2ccc(-c3cncc(CO)c3)cc2N=C(N)C1 [Compound 15]"
attribute_measured = "EC50"
assay_result = 712

[[record]]
compound = "CCCN(OCc1ccc(N)cc1)C(=O)C1=Cc2ccc(-c3cncc(Cl)c3)cc2N=C(N)C1 [Compound 49]"
attribute_measured = "EC50"
assay_result = 245

[[record]]
compound = "CCCN(OCc1ccc(N)cc1)C(=O)C1=Cc2ccc(C(=O)Nc3cccnc3)cc2N=C(N)C1 [Compound 40]"
attribute_measured = "EC50"
assay_result = 11700

